Listed compounds paired with reported viability
test: growth inhibitors of H69AR lung tumor, primary screen, human, duplicate replicates (AID 580); settings: H69AR lung tumor cells viability, ATP luminescence, 72 h; at 10 µM; hits give low values;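 note: 100% = mean luminescence of untreated wells and 0% = no signal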
valueType: viability (%)

[[record]]
compound = "COc1ccc(NC(=O)Nc2cc(C)ccc2OC)cc1"
recordedresult = 93.6

[[record]]
compound = "COc1ccc2c(c1)C(C)=CC(C)(C)N2C(=O)CSc1nnc(-c2ccc(C)cc2)o1"
recordedresult = 93.9

[[record]]
compound = "CCOC(=O)c1cccc(NC(=O)CSc2nnc(C3CCCCC3)n2C)c1"
recordedresult = 91.3

[[record]]
compound = "CC(=O)NC(Cc1cc(C)ccc1C)C(=O)N1CCN(C(=O)Nc2ccc(C(C)=O)cc2)CC1 (stereo not drawn)"
recordedresult = 88.7

[[record]]
compound = "C=CCOc1ccc(/C=N/n2cncn2)cc1OC"
recordedresult = 94.6

[[record]]
compound = "COc1cc(NS(=O)(=O)N2CCCC2)cc(OC)c1OC"
recordedresult = 92.2

[[record]]
compound = "Cc1ccc(NC(=O)CSc2nnc(-c3ccncc3)n2C)cc1C"
recordedresult = 92.2

[[record]]
compound = "CC(=O)c1ccc(OCC(O)CN2CC(C)OC(C)C2)cc1 (stereo not drawn)"
recordedresult = 105

[[record]]
compound = "O=c1cc(NCc2ccccc2)nc2n1CCCS2"
recordedresult = 92.1

[[record]]
compound = "O=C(NCCN1CCOCC1)c1csc2c1CCCC2"
recordedresult = 102

[[record]]
compound = "CCN(c1cccc(C(F)(F)F)c1)S(=O)(=O)c1ccc2c(c1)CCN2C(=O)C1CC1"
recordedresult = 82.5

[[record]]
compound = "O=C1OCCC1Sc1ncnc2sc3c(c12)CCC3 (stereo not drawn)"
recordedresult = 104

[[record]]
compound = "CCOC(=O)c1ccccc1NC(=O)N1CCn2c(C)ccc2C1CC (stereo not drawn)"
recordedresult = 84.8

[[record]]
compound = "COc1ccc(C2CC(=O)c3cnc(NC(=O)c4ccccc4OC)nc3C2)c(OC)c1 (stereo not drawn)"
recordedresult = 87

[[record]]
compound = "O=C1CSC(=Nc2ccc(O)cc2)N1c1ccc(O)cc1"
recordedresult = 91.4

[[record]]
compound = "O=C(CSc1ncnc2sc3c(c12)CCCCC3)NCc1ccco1"
recordedresult = 18

[[record]]
compound = "COC(=O)C1CCN(C(=O)c2sc3nc(-c4ccc(F)cc4)cn3c2C)CC1"
recordedresult = 100

[[record]]
compound = "Cc1nc2c(=O)oc3ccccc3c2n1-c1ccccc1"
recordedresult = 98.4

[[record]]
compound = "O=C1CC(N2CCN(c3ccc(Cl)c(Cl)c3)CC2)C(=O)N1 (stereo not drawn)"
recordedresult = 107

[[record]]
compound = "CCc1ccc(C=NC23CN4CN(CN(C4)C2)C3)s1"
recordedresult = 105

[[record]]
compound = "CC1N=C2c3ccccc3N=C(SCc3cc(=O)n4cc(Cl)ccc4n3)N2C1=O (stereo not drawn)"
recordedresult = 76.1

[[record]]
compound = "CC(C)c1ccc(S(=O)(=O)N2CCN(CCC(=O)Nc3ccc(N(C)C)cc3)CC2)cc1"
recordedresult = 60.6

[[record]]
compound = "CN(C)S(=O)(=O)N1CCN(c2cccc(Cl)c2)CC1"
recordedresult = 91


###

Listed molecules paired with reported inhibition
assay: growth suppression of yeast trafficking mutant, preliminary HTS, modulators of trafficking downstream of Golgi apparatus project, 1536-format plate, OD 615 nm (AID 637); details: yeast transport mutant growth, absorbance 615 nm, 18 h; hits give high values
valueType: inhibition (%)

[[record]]
molecule = "CC1CN(c2nc3ccccn3c(=O)c2/C=C(\\C#N)S(=O)(=O)c2ccccc2)CC(C)O1 (stereo unspecified)"
recordedresult = -14.4

[[record]]
molecule = "Cc1nn(-c2ccccc2)c2sc(C(=O)N3CCOCC3)cc12"
recordedresult = -0.48

[[record]]
molecule = "O=C(Nc1ccc(S(=O)(=O)NC2CCCC2)cc1)c1cnccn1"
recordedresult = -4

[[record]]
molecule = "COC(=O)C1=C(C)NC(=O)C1(Nc1ccc(Cl)cn1)C(F)(F)F (stereo unspecified)"
recordedresult = -5.17

[[record]]
molecule = "CCN1CCN(c2ncnc3c2oc2nc(C)c4c(c23)CC(C)(C)OC4)CC1"
recordedresult = -3.17

[[record]]
molecule = "CC(=O)c1cc2c(=O)c3cc(C)ccc3oc2nc1C"
recordedresult = -1.43

[[record]]
molecule = "Cc1ccc(C(=O)N2CCN(C(=O)c3ccc(C)c(C)c3)C(C)C2)cc1C (stereo unspecified)"
recordedresult = -1.67

[[record]]
molecule = "CCOC(=O)C(NC(=O)c1ccccc1)(Nc1cc(C)on1)C(F)(F)F (stereo unspecified)"
recordedresult = -1.61

[[record]]
molecule = "COC(=O)C1=C(C)NC(=O)C1(NC(=O)c1cccnc1)C(F)(F)F (stereo unspecified)"
recordedresult = 0.55

[[record]]
molecule = "CCn1c(SCC(=O)N2CCOCC2)nc2c(c1=O)SC(C)C2 (stereo unspecified)"
recordedresult = -4.92

[[record]]
molecule = "CCOCC(=O)Nc1ccc(S(=O)(=O)N2CCOCC2)cc1"
recordedresult = -2.7


The reported measurements were obtained from PubChem BioAssay.
